target: Sodium channel protein type 9 subunit alpha (Homo sapiens, UniProt Q15858); assay: Inhibition of Nav1.7 (unknown origin) expressed in CHO cells after 45 mins by FLIPR assay; format: cell-based
Sequence (Q15858 whole entry): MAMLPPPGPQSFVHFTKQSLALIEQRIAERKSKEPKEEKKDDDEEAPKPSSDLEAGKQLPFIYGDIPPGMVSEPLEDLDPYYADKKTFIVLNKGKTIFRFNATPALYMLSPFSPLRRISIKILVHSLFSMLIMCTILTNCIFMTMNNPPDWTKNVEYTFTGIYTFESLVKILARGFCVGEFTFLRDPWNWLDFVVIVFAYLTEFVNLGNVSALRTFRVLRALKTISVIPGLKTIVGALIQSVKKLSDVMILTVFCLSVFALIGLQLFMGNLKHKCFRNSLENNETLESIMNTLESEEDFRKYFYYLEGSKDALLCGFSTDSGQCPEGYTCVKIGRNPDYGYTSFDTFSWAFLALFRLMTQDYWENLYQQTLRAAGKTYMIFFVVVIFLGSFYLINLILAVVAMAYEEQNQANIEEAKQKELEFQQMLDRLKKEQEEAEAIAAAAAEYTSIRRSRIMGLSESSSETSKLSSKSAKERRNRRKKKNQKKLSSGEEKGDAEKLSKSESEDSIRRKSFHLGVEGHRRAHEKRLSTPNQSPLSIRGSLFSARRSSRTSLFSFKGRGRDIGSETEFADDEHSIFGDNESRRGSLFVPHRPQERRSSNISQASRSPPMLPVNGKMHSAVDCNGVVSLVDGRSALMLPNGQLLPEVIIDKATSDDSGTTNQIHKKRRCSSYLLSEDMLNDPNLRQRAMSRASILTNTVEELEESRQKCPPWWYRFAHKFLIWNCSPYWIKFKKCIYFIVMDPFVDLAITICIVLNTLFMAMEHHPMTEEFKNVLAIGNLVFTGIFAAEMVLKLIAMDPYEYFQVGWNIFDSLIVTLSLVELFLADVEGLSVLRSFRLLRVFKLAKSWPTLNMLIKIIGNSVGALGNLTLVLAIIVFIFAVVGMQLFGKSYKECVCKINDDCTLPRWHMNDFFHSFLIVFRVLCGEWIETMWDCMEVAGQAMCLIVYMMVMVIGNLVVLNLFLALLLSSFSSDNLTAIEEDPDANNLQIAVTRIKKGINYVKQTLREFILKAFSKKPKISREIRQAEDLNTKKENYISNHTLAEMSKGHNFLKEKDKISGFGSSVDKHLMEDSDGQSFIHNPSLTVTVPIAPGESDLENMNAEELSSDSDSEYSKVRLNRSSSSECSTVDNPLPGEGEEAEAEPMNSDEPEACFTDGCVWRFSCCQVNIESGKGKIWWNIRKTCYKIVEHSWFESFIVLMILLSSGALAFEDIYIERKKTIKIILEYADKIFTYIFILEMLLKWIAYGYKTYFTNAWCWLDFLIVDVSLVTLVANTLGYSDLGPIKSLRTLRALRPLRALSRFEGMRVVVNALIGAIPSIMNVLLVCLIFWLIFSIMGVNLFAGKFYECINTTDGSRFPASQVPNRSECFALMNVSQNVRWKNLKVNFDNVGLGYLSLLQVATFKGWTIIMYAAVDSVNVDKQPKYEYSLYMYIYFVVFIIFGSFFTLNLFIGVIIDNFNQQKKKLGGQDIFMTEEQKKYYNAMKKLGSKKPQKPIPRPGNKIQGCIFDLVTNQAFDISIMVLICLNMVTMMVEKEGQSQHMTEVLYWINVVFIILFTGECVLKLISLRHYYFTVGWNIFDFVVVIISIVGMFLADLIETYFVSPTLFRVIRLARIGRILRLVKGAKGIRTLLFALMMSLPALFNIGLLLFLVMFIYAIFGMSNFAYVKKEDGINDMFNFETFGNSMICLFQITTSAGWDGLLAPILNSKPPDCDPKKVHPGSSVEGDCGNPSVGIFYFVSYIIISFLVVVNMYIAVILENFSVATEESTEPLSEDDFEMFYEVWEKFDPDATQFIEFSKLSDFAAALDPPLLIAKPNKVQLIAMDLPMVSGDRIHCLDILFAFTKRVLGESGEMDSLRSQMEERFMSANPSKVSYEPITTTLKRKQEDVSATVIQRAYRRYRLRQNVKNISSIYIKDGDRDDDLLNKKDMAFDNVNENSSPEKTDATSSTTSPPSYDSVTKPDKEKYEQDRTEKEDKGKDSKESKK
readout type: pIC50
Numbers only, as −log10 of the molar value.

So what does the record say about pIC50 for "NC(=O)CN1Cc2cc(-c3cccc([C@H](O)CO)n3)ccc2Oc2ccc(C(F)(F)F)cc21" ? 5.74

###

assay: Kinetic solubility of the compound at pH 1.2; type: physicochemical; details: buffer, read-out: Kinetic_solubility
Classification field: enter y for solubility kinetic values not below 70 µM, n for values below it.

{"molecule": "NC(=O)c1cccc(-c2ccc3c(c2)CCc2cc(Cl)ccc2N3)n1", "assigned category": "n"}
{"molecule": "CN1c2ccc(-c3cccc([C@H](O)CO)n3)cc2CCc2cc(C(F)(F)F)ccc21", "assigned category": "n"}
{"molecule": "NC(=O)CN1Cc2cc(-c3cccc([C@H](O)CO)n3)ccc2Oc2ccc(C(F)(F)F)cc21", "assigned category": "y"}
{"molecule": "CCN1c2ccc(Cl)cc2CCc2cc(-c3cccc(C(N)=O)n3)ccc21", "assigned category": "n"}
{"molecule": "OC[C@@H](O)c1cccc(-c2ccc3c(c2)CNc2cc(C(F)(F)F)ccc2O3)n1", "assigned category": "y"}
{"molecule": "CC(=O)N1c2ccc(Cl)cc2CCc2cc(-c3cccc(C(N)=O)n3)ccc21", "assigned category": "n"}

Does the molecule NC(=O)N1c2ccccc2C=Cc2ccccc21 [CARBAMAZEPINE] have recorded solubility kinetic that is 70 µM or more? y

Does the molecule "CN1Cc2cc(C(F)(F)F)ccc2Oc2ccc(-c3cccc([C@H](O)CO)n3)cc21" have recorded solubility kinetic that is 70 µM or more? y

###

molecular target: Sodium channel protein type 9 subunit alpha (Homo sapiens, UniProt Q15858); experiment: Inhibition of Nav1.7 (unknown origin) by electrophysiological assay
readout type: Ki (nM)
Answers are plain numbers, in nM.

Solved cases (2 shown):
{"chemical structure": "CN1Cc2cc(C(F)(F)F)ccc2Oc2ccc(-c3cccc([C@H](O)CO)n3)cc21", "Ki / nM": 560}
{"chemical structure": "CN1Cc2cc(-c3cccc([C@H](O)CO)n3)ccc2Oc2ccc(C(F)(F)F)cc21", "Ki / nM": 440}

# next compound below
So what does the record say about Ki for "CN1Cc2cc(-c3cccc([C@H](O)[C@@H](O)C(N)=O)n3)ccc2Oc2ccc(C(F)(F)F)cc21" ? 920

###

experiment: Kinetic solubility of the compound at pH 6.8; assay type: physicochemical; conditions: buffer, read-out: Kinetic_solubility
Classification field: enter y for solubility kinetic values not below 6 µM, n for values below it.

For orientation, consider the following solved cases.
{"compound": "CN1Cc2cc(-c3cccc([C@H](O)CO)n3)ccc2Oc2ccc(C(F)(F)F)cc21", "assigned category": "n"}
{"compound": "NC(=O)CN1Cc2cc(-c3cccc([C@H](O)CO)n3)ccc2Oc2ccc(C(F)(F)F)cc21", "assigned category": "n"}
{"compound": "OC[C@@H](O)c1cccc(-c2ccc3c(c2)CNc2cc(C(F)(F)F)ccc2O3)n1", "assigned category": "y"}

Does the compound NC(=O)N1c2ccccc2C=Cc2ccccc21 [CARBAMAZEPINE] have recorded solubility kinetic that is 6 µM or more? y
